Subject Of Test: PKN2 (IPI00002804) (Homo sapiens, UniProt Q16513)
Construct: endogenous in cells
Sequence (Q16513 whole entry): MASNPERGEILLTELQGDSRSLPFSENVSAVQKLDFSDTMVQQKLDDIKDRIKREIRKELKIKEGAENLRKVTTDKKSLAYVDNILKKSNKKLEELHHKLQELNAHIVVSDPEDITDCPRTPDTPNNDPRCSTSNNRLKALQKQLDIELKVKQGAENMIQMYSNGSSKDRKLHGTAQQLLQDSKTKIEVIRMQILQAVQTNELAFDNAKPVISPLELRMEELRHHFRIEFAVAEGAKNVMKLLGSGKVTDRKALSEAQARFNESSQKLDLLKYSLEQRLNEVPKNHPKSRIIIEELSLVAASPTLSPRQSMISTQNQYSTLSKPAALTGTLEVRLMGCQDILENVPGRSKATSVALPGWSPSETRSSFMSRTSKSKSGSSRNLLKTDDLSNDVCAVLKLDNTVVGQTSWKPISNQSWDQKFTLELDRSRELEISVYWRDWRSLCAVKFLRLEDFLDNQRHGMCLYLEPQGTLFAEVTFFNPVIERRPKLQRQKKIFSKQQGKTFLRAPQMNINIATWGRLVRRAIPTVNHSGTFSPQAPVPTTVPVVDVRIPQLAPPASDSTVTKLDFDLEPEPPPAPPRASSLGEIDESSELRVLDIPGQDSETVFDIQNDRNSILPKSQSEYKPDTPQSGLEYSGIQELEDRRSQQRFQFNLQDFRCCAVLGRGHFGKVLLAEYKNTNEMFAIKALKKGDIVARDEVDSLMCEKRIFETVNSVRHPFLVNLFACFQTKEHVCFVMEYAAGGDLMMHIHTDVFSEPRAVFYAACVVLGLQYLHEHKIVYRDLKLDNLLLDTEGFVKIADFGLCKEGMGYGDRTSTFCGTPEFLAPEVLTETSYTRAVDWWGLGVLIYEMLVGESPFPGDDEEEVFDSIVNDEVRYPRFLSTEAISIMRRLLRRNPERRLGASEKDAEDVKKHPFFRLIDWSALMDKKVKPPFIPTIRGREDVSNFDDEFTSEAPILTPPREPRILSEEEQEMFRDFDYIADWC
Method Summary: binding to VI16742 beads (HeLa lysate, SILAC MS)
Run Conditions: immobilized VI16742
Source text: In an alternative implementation of the chemical proteomic approach according to the invention, the broadly-selective pyrido[2,3-d]pyrimidine-based kinase inhibitor VI16742 has been used for affinity capture (FIG. 10a). […] As shown by gene ontology analysis, the corresponding molecular functions were highly over-represented in proteins specifically retained by the inhibitor resin (FIG. 10b).

Structure	Subject Of Test	Ki / µM
CC(C)n1c(=O)ccc2cnc(Nc3ccc(OCCN)cc3)nc21	PKN2 (IPI00002804) (Homo sapiens, UniProt Q16513)	115

----------
Subject Of Test: CK1d (Homo sapiens)
Sequence (P48730 whole entry): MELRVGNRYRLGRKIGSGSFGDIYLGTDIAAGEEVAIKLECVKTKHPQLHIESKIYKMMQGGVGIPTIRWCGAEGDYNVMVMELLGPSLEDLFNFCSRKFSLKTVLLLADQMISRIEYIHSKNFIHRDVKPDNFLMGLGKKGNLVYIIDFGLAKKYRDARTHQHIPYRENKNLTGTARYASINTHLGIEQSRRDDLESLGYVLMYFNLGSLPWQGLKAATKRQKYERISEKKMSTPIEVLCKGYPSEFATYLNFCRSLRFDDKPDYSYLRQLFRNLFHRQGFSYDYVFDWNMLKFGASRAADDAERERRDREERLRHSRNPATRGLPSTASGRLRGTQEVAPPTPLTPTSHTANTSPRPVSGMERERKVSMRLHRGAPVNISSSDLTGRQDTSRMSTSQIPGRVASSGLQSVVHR
Method Summary: binding to immobilized V16742 (IVA1/IVA2, HeLa lysate, MS)
Run Conditions: EXPERIMENT 1, read-out: Kd
Reported Metric: Kd (µM)

Compound	Subject Of Test	Value Units	Endpoint Value
CC(C)n1c(=O)ccc2cnc(Nc3ccc(OCCN)cc3)nc21 [compound 16742]	CK1d (Homo sapiens)	µM	7.38

----------
Subject Of Test: CaMKK1 (Homo sapiens, UniProt Q8N5S9)
Construct: endogenous in cells; host or cells: HeLa S3
Sequence (Q8N5S9 whole entry): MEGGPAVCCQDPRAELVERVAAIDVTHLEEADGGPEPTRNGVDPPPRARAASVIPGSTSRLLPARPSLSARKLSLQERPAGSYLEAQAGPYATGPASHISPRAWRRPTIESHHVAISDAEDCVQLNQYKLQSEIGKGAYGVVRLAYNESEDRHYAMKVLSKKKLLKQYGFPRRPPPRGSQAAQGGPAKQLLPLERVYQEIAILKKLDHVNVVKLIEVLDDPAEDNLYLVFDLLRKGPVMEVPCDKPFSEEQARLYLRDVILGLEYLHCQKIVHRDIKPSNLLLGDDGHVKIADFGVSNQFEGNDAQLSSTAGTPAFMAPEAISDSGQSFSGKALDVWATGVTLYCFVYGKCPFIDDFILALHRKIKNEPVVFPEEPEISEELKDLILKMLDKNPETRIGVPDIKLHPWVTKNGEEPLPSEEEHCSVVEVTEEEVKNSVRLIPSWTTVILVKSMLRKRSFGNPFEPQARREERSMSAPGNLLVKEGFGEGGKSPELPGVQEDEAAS
Method Summary: binding to immobilized V16742 (IVA1/IVA2, HeLa lysate, MS)
Run Conditions: Experiment 1, read-out: Kd
pKd: −log10 of the molar value.

Structure	pKd
CC(C)n1c(=O)ccc2cnc(Nc3ccc(OCCN)cc3)nc21	4.42

----------
Subject Of Test: JNK2 (Homo sapiens, UniProt P45984)
Sequence (P45984 whole entry): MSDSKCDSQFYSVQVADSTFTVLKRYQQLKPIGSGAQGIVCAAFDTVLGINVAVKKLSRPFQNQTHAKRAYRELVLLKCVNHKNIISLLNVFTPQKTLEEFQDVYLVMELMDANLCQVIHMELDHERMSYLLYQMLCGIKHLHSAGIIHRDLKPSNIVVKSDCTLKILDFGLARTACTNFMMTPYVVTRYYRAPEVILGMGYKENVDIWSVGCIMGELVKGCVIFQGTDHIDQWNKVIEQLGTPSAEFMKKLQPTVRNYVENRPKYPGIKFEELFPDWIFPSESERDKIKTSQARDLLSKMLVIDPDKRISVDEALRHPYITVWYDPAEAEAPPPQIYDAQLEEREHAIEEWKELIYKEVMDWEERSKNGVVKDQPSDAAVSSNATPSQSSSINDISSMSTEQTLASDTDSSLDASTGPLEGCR
Method Summary: binding to immobilized V16742 (IVA1/IVA2, HeLa lysate, MS)
Run Conditions: EXPERIMENT 2, read-out: Kd
pKd: −log10 of the molar value.

Structure	pKd
CC(C)n1c(=O)ccc2cnc(Nc3ccc(OCCN)cc3)nc21	5.77

----------
Subject Of Test: RSU1 (IPI00847168)
Method Summary: binding to VI16742 beads (HeLa lysate, SILAC MS)
Run Conditions: immobilized VI16742
Source text: In an alternative implementation of the chemical proteomic approach according to the invention, the broadly-selective pyrido[2,3-d]pyrimidine-based kinase inhibitor VI16742 has been used for affinity capture (FIG. 10a). […] As shown by gene ontology analysis, the corresponding molecular functions were highly over-represented in proteins specifically retained by the inhibitor resin (FIG. 10b).
pKi: −log10 of the molar value.

Compound	pKi
CC(C)n1c(=O)ccc2cnc(Nc3ccc(OCCN)cc3)nc21 [V16742]	3.66

----------
Subject Of Test: CK1a (Homo sapiens, UniProt P48729)
Sequence (P48729 whole entry): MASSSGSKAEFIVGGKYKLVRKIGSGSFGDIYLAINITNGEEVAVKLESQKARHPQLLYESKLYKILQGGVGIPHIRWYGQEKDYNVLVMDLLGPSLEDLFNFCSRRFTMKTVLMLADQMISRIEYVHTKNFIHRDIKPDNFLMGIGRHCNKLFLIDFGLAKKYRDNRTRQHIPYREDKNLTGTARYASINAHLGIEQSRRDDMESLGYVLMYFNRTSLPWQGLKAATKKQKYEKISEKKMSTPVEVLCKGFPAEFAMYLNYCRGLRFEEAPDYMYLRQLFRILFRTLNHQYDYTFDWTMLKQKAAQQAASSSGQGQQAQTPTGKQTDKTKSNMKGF
Method Summary: binding to immobilized V16742 (IVA1/IVA2, HeLa lysate, MS)
Run Conditions: EXPERIMENT 2, read-out: Kd
pKd: −log10 of the molar value.

Structure	pKd
CC(C)n1c(=O)ccc2cnc(Nc3ccc(OCCN)cc3)nc21	4.77

----------
Subject Of Test: DAPK2 (IPI00033388) (Homo sapiens)
Construct: endogenous in cells
Sequence (Q9UIK4 whole entry): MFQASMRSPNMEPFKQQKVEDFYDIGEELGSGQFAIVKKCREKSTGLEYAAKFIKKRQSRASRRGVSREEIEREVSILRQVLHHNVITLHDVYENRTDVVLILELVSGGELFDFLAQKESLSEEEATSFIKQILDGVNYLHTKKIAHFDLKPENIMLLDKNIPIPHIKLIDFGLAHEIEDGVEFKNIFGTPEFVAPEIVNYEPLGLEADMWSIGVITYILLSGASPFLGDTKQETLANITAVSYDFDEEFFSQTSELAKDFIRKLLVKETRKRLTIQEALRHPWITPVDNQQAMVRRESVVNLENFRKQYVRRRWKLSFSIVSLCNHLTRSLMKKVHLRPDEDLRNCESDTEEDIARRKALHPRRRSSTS
Method Summary: binding to VI16742 beads (HeLa lysate, SILAC MS)
Run Conditions: immobilized VI16742
pKi: −log10 of the molar value.

Structure	pKi
CC(C)n1c(=O)ccc2cnc(Nc3ccc(OCCN)cc3)nc21	3.77

----------
Subject Of Test: CDA (Homo sapiens, UniProt P32320)
Construct: endogenous in cells
Sequence (P32320 whole entry): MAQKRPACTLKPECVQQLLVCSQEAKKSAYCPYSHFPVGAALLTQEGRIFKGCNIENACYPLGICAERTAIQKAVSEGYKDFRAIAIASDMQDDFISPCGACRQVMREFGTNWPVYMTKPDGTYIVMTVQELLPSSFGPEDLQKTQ
Method Summary: binding to AX14596 beads (HeLa lysate, SILAC MS)
Reported Metric: Ki (µM)

Compound	Value Units	Endpoint Value
COc1cc2ncnc(Nc3ccc(F)c(Cl)c3)c2cc1OCCCN [AX14596]	µM	402
